Tested on: Human immunodeficiency virus 2
TEST DESCRIPTION: Antiviral activity against HIV2 infected in human CEM-SS cells assessed as inhibition of viral replication and virus-induced cytopathic effect by dose-response curve analysis
Assay type: functional
TEST PARAMETERS: Human immunodeficiency virus 2, CEM-SS
PARAMETER MEASURED: EC99 (µM)
The answer is to be given in µM; state only the numeric part.

// lookup EC99 for Cc1cc(C)cc(C(=O)c2c(C(C)C)c(=O)[nH]c(=O)n2CC2=CCCC2)c1
1

// lookup EC99 for Cc1cc(C)cc(C(=O)c2c(C(C)C)c(=O)[nH]c(=O)n2CC2CC2)c1
10

// lookup EC99 for CCc1c(Sc2cc(C)cc(C)c2)n(CC2CCC2)c(=O)[nH]c1=O
40

// lookup EC99 for CCc1c(Oc2cc(C)cc(C)c2)n(Cc2ccccc2)c(=O)[nH]c1=O
0.3

// lookup EC99 for Cc1cc(C)cc(Oc2c(C(C)C)c(=O)[nH]c(=O)n2CC2CC2)c1
1

// lookup EC99 for Cc1cc(C)cc(Sc2c(C(C)C)c(=O)[nH]c(=O)n2CC2=CCCC2)c1
1

// lookup EC99 for CCc1c(C(=O)c2cc(C)cc(C)c2)n(CC2CC=CC2)c(=O)[nH]c1=O
100

// lookup EC99 for Cc1cc(C)cc(C(=O)c2c(C(C)C)c(=O)[nH]c(=O)n2CC2CC=CC2)c1
100

// lookup EC99 for CCc1c(C(=O)c2cc(C)cc(C)c2)n(CC2CC2)c(=O)[nH]c1=O
100

// lookup EC99 for CCc1c(Oc2cc(C)cc(C)c2)n(CC2CC2)c(=O)[nH]c1=O
10
